The measurements presented in this section are drawn from patent US12398141B2.

Tgt: JAK3 (Homo sapiens (Human))
Sequence (P52333 whole entry): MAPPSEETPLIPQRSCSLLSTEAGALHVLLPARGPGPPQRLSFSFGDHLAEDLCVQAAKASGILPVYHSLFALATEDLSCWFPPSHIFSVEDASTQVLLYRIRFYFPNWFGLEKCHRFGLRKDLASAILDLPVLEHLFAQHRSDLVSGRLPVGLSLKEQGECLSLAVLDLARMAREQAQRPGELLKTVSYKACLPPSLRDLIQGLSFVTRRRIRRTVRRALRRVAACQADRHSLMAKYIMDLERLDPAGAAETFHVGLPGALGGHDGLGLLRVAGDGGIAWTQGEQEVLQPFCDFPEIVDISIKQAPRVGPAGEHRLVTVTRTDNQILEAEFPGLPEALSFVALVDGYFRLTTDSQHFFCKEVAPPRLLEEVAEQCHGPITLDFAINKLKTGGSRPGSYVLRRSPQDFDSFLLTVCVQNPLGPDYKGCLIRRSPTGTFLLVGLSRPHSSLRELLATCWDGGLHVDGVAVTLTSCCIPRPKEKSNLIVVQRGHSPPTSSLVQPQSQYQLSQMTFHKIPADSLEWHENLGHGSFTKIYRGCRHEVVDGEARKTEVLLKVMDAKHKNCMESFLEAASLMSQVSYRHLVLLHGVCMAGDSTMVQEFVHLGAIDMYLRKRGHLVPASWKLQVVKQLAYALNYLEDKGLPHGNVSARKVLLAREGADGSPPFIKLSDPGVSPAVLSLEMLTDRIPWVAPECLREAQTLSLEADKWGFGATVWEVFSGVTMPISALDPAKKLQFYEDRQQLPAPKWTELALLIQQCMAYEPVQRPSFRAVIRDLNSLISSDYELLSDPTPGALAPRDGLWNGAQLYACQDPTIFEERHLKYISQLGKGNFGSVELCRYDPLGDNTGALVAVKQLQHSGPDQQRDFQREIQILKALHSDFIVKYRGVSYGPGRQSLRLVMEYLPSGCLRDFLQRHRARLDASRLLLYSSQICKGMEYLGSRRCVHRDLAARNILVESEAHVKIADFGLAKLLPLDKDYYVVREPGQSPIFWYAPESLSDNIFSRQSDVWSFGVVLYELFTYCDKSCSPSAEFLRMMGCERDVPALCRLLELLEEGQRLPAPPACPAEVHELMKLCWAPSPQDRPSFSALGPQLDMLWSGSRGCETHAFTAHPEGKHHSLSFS
Protocol Summary: JAK3 LANCE Ultra kinase assay
Format: biochemical
Result Type: IC50
Please state the number and follow it with the unit.

I would be grateful if you could share the reported IC50 for CC[C@@H]1CN(C(=O)NC(C)C)C[C@@H]1Nc1c(C#N)cnc2[nH]ccc12 (relative stereo) . 89 nM

====

Protocol Summary: Pharmacokinetic test after intragastric administration
Type: in vivo
Condition Description: Sprague-Dawley, mouse, plasma, po; SD mice, 5 mg/kg intragastric; read-out: Plasma concentration (Cmax, ng/ml)
Result Type: Cmax

I would be grateful if you could share the reported Cmax for N#Cc1cnc2[nH]ccc2c1N[C@H]1C[C@@H](NS(=O)(=O)CCC(F)(F)F)C1 . 644 ng/mL

I would be grateful if you could share the reported Cmax for CC[C@@H]1CN(C(=O)NCC(F)(F)F)CC1Nc1c(C#N)cnc2[nH]ccc12 (stereo partly shown) . 578 ng/mL

I would be grateful if you could share the reported Cmax for CCCS(=O)(=O)N[C@H]1C[C@@H](N(C)c2c(C#N)cnc3[nH]ccc23)C1 . 438 ng/mL

I would be grateful if you could share the reported Cmax for CC(C)c1nsc(NC(=O)N2C[C@H]3C[C@H](N(C)c4c(C#N)cnc5[nH]ccc45)C[C@H]3C2)n1 . 433 ng/mL
